# Test system: HCT-15 colon
# methodNotes: NCI tumour cell line growth inhibition, 48 h; in the data active means GI50 below about 0.43 µM; inactive means the rest
The categories you may choose from are active, inactive

Previously resolved entries follow.
> print(dat)
                                   compound  classassignment
1              Cn1c(O)c(N=NC(N)=S)c2ccccc21         inactive
2   Cc1nn2c(/C=C3\C(=O)Nc4ccccc43)c(C)nc2s1         inactive
3  N#Cc1c(NCc2ccccc2)nc(NCc2ccccc2)c(C#N)c1-c1cccc(O)c1         inactive
4  FC(F)(F)c1cc(NC2=NCCN=C(Nc3cc(C(F)(F)F)cc(C(F)(F)F)c3)SS2)cc(C(F)(F)F)c1         inactive
5  CC(C)=CCC/C(C)=C/[C@H]1OC(=O)CC12C[C@H](O)C=CC2=O (stereo partly specified)         inactive
6  CCC(=O)OC1=CN2C(=NC(c3ccc(N)cc3)=CC2c2cc(OC)c(OC)c(OC)c2)S1 (stereo unspecified)         inactive
7  C[C@H]1CCC/C=C/[C@@H]2C[C@H](O)C[C@H]2[C@H](O)[C@@H](SC2OC(CO)C(O)C(O)C2O)CC(=O)O1 (stereo partly specified)         inactive
8  CCN(CC)CCOc1nc2cc(OC)c(OC)cc2c2c1-c1ccc(OC)cc1C2=O         inactive

For "O=C(Nc1cccc([N+](=O)[O-])c1)c1cc2ccccc2cc1O" , what call appears in the results of this test?
inactive

For Cc1nc2sc(C(=O)Nc3cccc(Cl)c3C)c(N)c2cc1C(C)O (stereo unspecified) , what call appears in the results of this test?
active

For "CN1N=Nc2c(C(F)(F)F)nn(-c3ccccc3)c2N(C)C1=O" , what call appears in the results of this test?
inactive

For "Cc1[nH]n(-c2ccccc2)c(=O)c1C(=O)c1ccccc1" , what call appears in the results of this test?
inactive

For "CS(=O)(=O)Nc1cc(-c2ccc3ncnc(Nc4cccc(Cl)c4F)c3c2)cnc1Cl" , what call appears in the results of this test?
inactive

For "Cc1ccc(S(=O)(=O)c2ccsc2N)cc1" , what call appears in the results of this test?
inactive

For "CC(=O)O[C@H](C[C@H](C(C)C)N(C)C(=O)[C@@H](NC(=O)[C@H]1CCCCN1C)C(C)(C)C)c1nc(C(=O)N[C@@H](Cc2ccccc2)C[C@H](C)C(=O)O)cs1" , what call appears in the results of this test?
active

For "CC(=O)NS(=O)(=O)c1ccc(-n2nc(-c3ccccc3)cc2C2=CC(=O)C=CC2=O)cc1" , what call appears in the results of this test?
inactive

====

Would you mind telling me the reported TGI of each entry?
# Test system: RXF-631 renal
# methodNotes: NCI tumour cell line growth inhibition, 48 h

Look over these answered cases.
molecule	quantityMeasured	result
C[C@@H](c1ccccc1)N(CC#N)C1CCC[C@H]1O (some centres not stated)	TGI	> 100 µM
Cc1ccc(SCC(O)=C2C(=O)CCCC2=O)cc1	TGI	> 100 µM
Cc1c(N)nc(C(CC(N)=O)NCC(N)C(N)=O)nc1C(=O)NC(C(=O)NC(C)C(O)C(C)C(=O)NC(C(=O)NCCc1nc(-c2nc(C(=O)NCCCNCCCCN)cs2)cs1)C(C)O)C(OC1OC(CO)C(O)C(O)C1OC1OC(CO)C(O)C(OC(N)=O)C1O)c1cnc[nH]1 (configuration not stated)	TGI	> 10 µM
O=c1cccccc1NCCNc1cccccc1=O	TGI	> 100 µM

For each listed entry, give its TGI.
1. COc1cc(C2(C)SCCCS2)c(I)c(OC)c1OC
2. c1ccc(COc2cccc3cccnc23)cc1

1. > 100 µM
2. > 100 µM

Find the measured TGI of CC1=NN(C(=O)c2cc(Cl)cc([N+](=O)[O-])c2)C(=O)C1N=Nc1ccccc1C(=O)O (configuration not stated) and report it.
> 100 µM

====

# Tested on: NCI/ADR-RES ovarian
# methodNotes: NCI tumour cell line growth inhibition, 48 h; in the data active = GI50 below about 0.43 µM; inactive = the rest
The categories you may choose from are 1 = active, -1 = inactive

> print(dat)
                                   molecule  classassignment
1  CC[C@H](C)[C@H](NC(=O)c1nccn1C)C(=O)N(C)[C@H](C[C@@H](OC(C)=O)c1nc(C(=O)N[C@@H](Cc2ccccc2)C[C@H](C)C(=O)OC)cs1)C(C)C               -1

For "Cc1cc(S(=O)(=O)Nc2nc3cc(-c4ccsc4)sc3c(=O)n2N)c(S)cc1Cl" , what call appears in the results of this test?
-1

For "NC(=S)N/N=C\c1nccc2c(C(F)(F)C(F)(F)C(F)(F)F)cccc12" , what call appears in the results of this test?
1

For O=S1(=O)CC(Br)C(Br)C1 (centres undefined) , what call appears in the results of this test?
-1

For "O=c1[nH]cnc2nc(-c3ccc(N(CCCl)CCCl)cc3)[nH]c12" , what call appears in the results of this test?
-1

For "Cn1c(O)c(N=NC(N)=S)c2ccccc21" , what call appears in the results of this test?
-1

====

# Tested on: DMS 273 small cell lung
# methodNotes: NCI tumour cell line growth inhibition, 48 h
quantityMeasured: TGI

Look over these answered cases.
> print(dat)
                                   molecule            targetofassay    result
1  O=C1C2=C(c3ccccc31)C(c1ccc(Cl)cc1)NC(=S)N2 (stereo unspecified)  DMS 273 small cell lung   42.8 µM
2  CN(CCN(C)C(=O)CCn1ccc(=O)[nH]c1=O)C(=O)CCn1ccc(=O)[nH]c1=O  DMS 273 small cell lung  > 100 µM
3  CC1(C)N=C(N)N=C(N)N1c1ccc(OCCCOc2ccccc2)c(Cl)c1  DMS 273 small cell lung   1.15 µM

For each listed entry, give its TGI.
1. Cc1ccc(SCC(O)=C2C(=O)CCCC2=O)cc1
2. CC(=O)[C@H]1CCC2[C@@H]3CC=C4C(O)C(OS(=O)(=O)O)CC[C@]4(C)C3CC[C@@]21C (stereo partly specified)
3. O=C(O)c1oc2cccc3c2c1CCC3
4. CNC(C)Cc1ccc(O)cc1 (stereo unspecified)
5. c1ccc(-c2[nH]c(-c3ccccc3)c(-c3cnccn3)c2-c2cnccn2)cc1

> 100 µM
> 100 µM
> 100 µM
> 100 µM
> 100 µM

====

# Test system: HS 578T breast
# methodNotes: NCI tumour cell line growth inhibition, 48 h; in the data active = GI50 below about 0.43 µM; inactive = the rest
The categories you may choose from are TRUE for active, FALSE for inactive

> print(dat)
                          compound  classassignment
1  N#C/C(=C\c1cccnc1)c1nc2ccccc2o1            FALSE

For "N#Cc1c(NCc2ccccc2)nc(NCc2ccccc2)c(C#N)c1-c1cccc(O)c1" , what call appears in the results of this test?
FALSE

For "Cc1ccc2cnc(N)c(C#Cc3cncc(C(=O)Nc4ccc(CN5CCN(C)CC5)c(C(F)(F)F)c4)c3)c2c1" , what call appears in the results of this test?
TRUE

For "CC[C@H](C)[C@H](NC(=O)c1nccn1C)C(=O)N(C)[C@H](C[C@@H](OC(C)=O)c1nc(C(=O)N[C@@H](Cc2ccccc2)C[C@H](C)C(=O)OC)cs1)C(C)C" , what call appears in the results of this test?
FALSE

====

# Test system: BT-549 breast
# methodNotes: NCI tumour cell line growth inhibition, 48 h
quantityMeasured: TGI

Look over these answered cases.
> print(dat)
                                   molecule  quantitymeasured    result
1  CN1N=Nc2c(C(F)(F)F)nn(-c3ccccc3)c2N(C)C1=O               TGI  > 100 µM
2  CCOC(=O)c1cn(C)nc1N/C(C)=C\C(=O)c1ccccc1               TGI  > 100 µM
3     O=C(NCc1ccccc1)c1c(O)c2ccccc2[nH]c1=O               TGI  > 100 µM
4        O=C(O)c1cc2c(c3ccsc13)-c1ccccc1CC2               TGI  > 100 µM
5  CCOC(=O)CCC(C(=O)OCC)n1nnc2cc(Nc3c(C)[n+]([O-])c4ccc(Cl)cc4[n+]3[O-])ccc21 (stereo not given)               TGI  > 100 µM

For each listed entry, give its TGI.
1. NC(=S)N/N=C\c1nccc2c(C(F)(F)C(F)(F)C(F)(F)F)cccc12
2. CCCNc1cccc(-n2ncc3c(N/N=C/c4ccncc4)ncnc32)c1
3. COc1ccc(C2NC(=O)Nc3c2c(=O)oc2c3ccc3ccccc32)cc1 (stereo not given)

["11.7 µM", "> 25 µM", "> 100 µM"]

For each listed entry, give its TGI.
1. CS(=O)(=O)Nc1cc(-c2ccc3ncnc(Nc4cccc(Cl)c4F)c3c2)cnc1Cl
2. COC(=O)c1c(C#C[Si](C)(C)C)c(C#C[Si](C)(C)C)c(C#C[Si](C)(C)C)c(C#C[Si](C)(C)C)c1C(=O)OC

7.65 µM
> 100 µM
